Readings of melting point for the listed compounds

Solved entries:
[[record]]
compound = "Clc1nc2ccnn2c2ncccc12"
value_observed = "160 °C"

[[record]]
compound = "COC(=O)C1=C(C)Nc2nccn2C1c1cccc([N+](=O)[O-])c1 (stereo not given)"
value_observed = "263 to 264 °C"

[[record]]
compound = "CC(=O)NC[C@H]1CN2C(=O)C[C@@H]2O1"
value_observed = "82.5 to 84.5 °C"

[[record]]
compound = "CC(=O)Nc1c(C(=O)c2cccc(C(N)=O)c2)[nH]c2cc(Cl)ccc12"
value_observed = "243 to 247 °C"

[[record]]
compound = "O=C(COc1ccc([N+](=O)[O-])cc1)NCc1ccccc1"
value_observed = "125 to 126 °C"


Q) Entry under review: Cc1cccnc1NC(=O)C(C)(C)C . Reported melting point?
A) 90 to 92 °C
